Answer each item with its documented pIC50.
Target sequence: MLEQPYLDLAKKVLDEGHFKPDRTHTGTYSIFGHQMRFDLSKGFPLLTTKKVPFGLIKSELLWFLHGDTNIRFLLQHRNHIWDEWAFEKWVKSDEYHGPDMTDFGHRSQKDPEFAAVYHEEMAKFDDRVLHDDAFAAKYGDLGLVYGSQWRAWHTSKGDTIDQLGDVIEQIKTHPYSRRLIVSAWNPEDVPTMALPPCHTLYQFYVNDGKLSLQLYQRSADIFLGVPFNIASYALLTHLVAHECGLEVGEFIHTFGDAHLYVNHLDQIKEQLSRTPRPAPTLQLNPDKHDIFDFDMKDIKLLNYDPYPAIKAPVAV
pIC50: −log10 of the molar value.

COMPOUND: CCC(Cc1ccc(C(=O)NC(CCC(=O)O)C(=O)O)cc1)c1cnc2nc(N)nc(N)c2n1 (configuration not stated)
pIC50: < 4.00

Pending compound:
Report pIC50 for CC(Cc1ccc(C(=O)NC(CCC(=O)O)C(=O)O)cc1)c1cnc2nc(N)nc(N)c2n1 (configuration not stated)
< 4.00

Source: ChEMBL document CHEMBL1124936
